Test system: RPMI-8226 leukemia
test method notes: NCI tumour cell line growth inhibition, 48 h
readout label: GI50

A selection of reference data follows.
# compound, test system, measurement
data = [
    ("Nc1c(Br)cc(Br)c2c1[nH]c(=O)c1ccccc12", "RPMI-8226 leukemia", "9.89 µM"),
    ("CCOc1ccc(-c2nonc2NC(=O)c2cccc(C)c2)cc1OCC", "RPMI-8226 leukemia", "> 100 µM"),
    ("COc1cc(-c2nn(-c3cccc(NC(=O)Nc4cc(C(F)(F)F)cc(C(F)(F)F)c4)c3)cc2-c2ccncc2)ccc1Cl", "RPMI-8226 leukemia", "0.203 µM"),
]

Entry "O=C1/C(=C/c2ccccc2)CN(C(=O)c2cccnc2)C/C1=C\c1ccccc1" , GI50 reported as 0.318 µM

Quick note, GI50 for "CCCc1cc2c(=O)c(C(=O)OC)c[nH]c2cc1N(CC)CC" landed at 63.2 µM

Recorded GI50 (compound "Cc1cc2nc3c4cc(N)ccc4n(CCN(C)C)c3nc2cc1C" ): 0.606 µM

GI50 in this record for O=c1ccn(C2OC(CO/N=C/c3ccc(O)c(O)c3O)C(O)C2O)c(=O)[nH]1 (stereo unspecified) : 49.5 µM

Record "COc1ccc(-n2nnnc2-c2c[nH]c3c(F)cc(F)cc23)cc1" , field GI50: > 100 µM

###

Tested on: MCF7 breast
test method notes: NCI tumour cell line growth inhibition, 48 h
readout label: TGI

Worked set:
# compound, TGI
rows = [
    ("CC(=O)N1OC(C)CC1Nc1ccc(Br)cc1 (stereo unspecified)", "> 100 µM"),
    ("O/C(=C\\c1nc2ccccc2nc1/C=C(\\O)c1ccc(Cl)cc1)c1ccccc1", "> 100 µM"),
    ("CC(C)(O)CS(=O)(=O)Nc1ccc2c(c1)CCN(C(=O)COc1cccnc1)C2", "> 100 µM"),
    ("O=C(c1ccco1)c1nc2cc(Cl)ccc2[n+]([O-])c1C(F)(F)F", "> 100 µM"),
    ("Cc1ccc(C)n1-n1c(Cc2ccccc2)n[nH]c1=O", "> 100 µM"),
]

Just so you know, measured TGI for "COc1ccc(-c2c(=O)[nH]n3c(=S)nc(-c4ccccc4)[nH]c23)cc1OC" came out at 36.9 µM

The compound listed as C#CCC(Cc1cnc2nc(N)nc(N)c2n1)c1ccc(C(=O)N[C@@H](CCC(=O)O)C(=O)O)cc1 (stereo partly specified) has a reported TGI of > 100 µM

"CCOC(=O)N1CCc2cc(OC)c(OC)c3c2c1cc1cc(OC)c(OC)cc13" yielded TGI of 32.8 µM

Per the record, "Cc1ccc2c(=O)c3cccc(CC(=O)O)c3[nH]c2c1C" has TGI of > 100 µM

compound COC1CC2CCC(C)C(O)(O2)C(=O)C(=O)N2CCCCC2C(=O)OC(C(C)CC2CCC(O)C(OC)C2)CC(=O)C(C)C=C(C)C(O)C(OC)C(=O)C(C)CC(C)/C=C/C=C/C=C1C (stereo unspecified) , TGI observed: 14.6 µM

// TGI value for COC(=O)C1(c2cc3ccccc3n2S(=O)(=O)c2ccccc2)CC2C=CC1NC2 (stereo unspecified) : 3.06 µM

Just so you know, measured TGI for "COC(=O)c1c2c(c(C)[n+]([O-])c1C)C(=O)C=C(NCc1ccc(F)c(Cl)c1)C2=O" came out at 0.892 µM

Sure, the documented TGI for CC(C)CC1C(=O)NCCC(NC(=O)C(N)Cc2ccc(O)cc2)C(=O)NC(Cc2ccccc2)C(=O)NC(Cc2ccccc2)NC1=O (stereo unspecified) is > 100 µM

The measured TGI associated with "O=c1c2ccccc2n(C[C@H]2CO2)c2ccccc12" reads 2.98 µM

For this compound ( "O=C(CNc1cccc([N+](=O)[O-])c1)Nn1c(-c2ccccc2)nc2ccccc2c1=O" ), measured TGI is 1.71 µM

# TGI (compound: "COc1c(C)c2c(c(=O)c3c(C)cccc3n2C)c2c1c(=O)c1c(C)cccc1n2C" ) is > 10 µM

###

Reported TGI values are given for each entry in this list.
Tested on: HCT-116 colon
test method notes: NCI tumour cell line growth inhibition, 48 h

# compound, readout label, measurement
records = [
    ("C=CCN1C(=O)/C(=C/c2ccc(OC)cc2)NC1=S", "TGI", "> 100 µM"),
]

Form: compound = "Cc1c(C)c2c(c(N)c1C#N)C(=O)N(Nc1ccccc1)C2=O" ; TGI = > 100 µM

The value of TGI measured for the compound CC1=C2C[C@H]3[C@@H](CC[C@@H]4CC(NS(C)(=O)=O)CC[C@@]43C)[C@@H]2CC[C@@]2(C1)O[C@@H]1C[C@H](C)CN[C@H]1[C@H]2C (some centres undefined) turned out to be 18.4 µM

Entry "CC(=O)[CH-]C(=O)c1ccccc1.CC(=O)[CH-]C(=O)c1ccccc1.CC1(C)C2CCC1(C)C([O-])C2.CC1(C)C2CCC1(C)C([O-])C2.[Ti+4]" — recorded TGI = > 100 µM

###

Test system: SK-MEL-28 melanoma
test method notes: NCI tumour cell line growth inhibition, 48 h
readout label: TGI

Lab note: "Nc1c2c(=O)[nH]c(=O)c2c(N)c2c(=O)c3ccccc3c(=O)c12" gave TGI of 3.98 µM

###

System: IGROV1 ovarian
test method notes: NCI tumour cell line growth inhibition, 48 h; in the data active means GI50 below about 0.43 µM; inactive means the rest
Hi! Could you answer with just one of these? y for active, n for inactive

# molecule, test system, assigned label
measured = [
    ("CC[C@H](Nc1nc(NCc2cnc(C)cc2C)c2ncn(C(C)C)c2n1)[C@@H](C)O", "IGROV1 ovarian", "y"),
    ("O=C(Nc1cc(Cl)cc(Cl)c1)c1ccc(NC2=C(Cl)C(=O)N(Cc3ccc(Cl)cc3Cl)C2=O)cc1", "IGROV1 ovarian", "n"),
    ("O=C(/C=C/c1cccnc1)NCCCCC1CCCN(C(=O)c2ccccc2)C1 (stereo not given)", "IGROV1 ovarian", "y"),
]

What classification did "COc1ccc(-n2nnnc2-c2c[nH]c3c(F)cc(F)cc23)cc1" end up with in this test?
n

###

Tested on: DU-145 prostate
test method notes: NCI tumour cell line growth inhibition, 48 h
readout label: TGI

Entry "COc1cc2cc(Oc3ccc(NC(=O)Nc4cccc(C(F)(F)F)c4)cc3)c(C)nc2cc1OC" — recorded TGI = 15.8 µM

###

# reported TGI; entries follow
Test system: ACHN renal
test method notes: NCI tumour cell line growth inhibition, 48 h

Some compounds with recorded TGI:
# compound, TGI
measured = [
    ("Cc1ccc(C)n1-n1c(Cc2ccccc2)n[nH]c1=O", "> 100 µM"),
    ("CC(OC(C)(C)C)[C@H](NC(=O)OC(C)(C)C)C(=O)O (stereo partly specified)", "> 100 µM"),
    ("Cc1ccc(-n2c3c(c4c(CN(C)C)c(O)ccc42)CCc2ccccc2C3=O)cc1", "36 µM"),
]

Please fill in: TGI reported for O=C(CC1(O)C(=O)Nc2c(Cl)ccc(Cl)c21)c1ccc2ccccc2c1 (stereo unspecified) = 26.3 µM

Entry "[O-][n+]1onc2c1CCC(=N\O)/C2=N/Nc1ccccc1" ; TGI = > 100 µM

get_value(item= "CN(C)c1ccc(/C=C2\C[C@H]3[C@@H]4CCc5cc(OCCN6CCCC6)ccc5[C@H]4CC[C@]3(C)C2=O)cc1" , readout=TGI) returns 3.11 µM

Just so you know, measured TGI for "CC(C)=CCNc1ncnc2nc[nH]c12" came out at > 100 µM

###

Test system: UACC-257 melanoma
test method notes: NCI tumour cell line growth inhibition, 48 h
readout label: TGI (µM)
Give just the number in µM; leave the unit off.

# compound, readout label, measurement
measured = [
    ("COC(=O)c1c2c(c(C)[n+]([O-])c1C)C(=O)C=C(NCc1ccc(F)c(Cl)c1)C2=O", "TGI", 0.64),
    ("C/C(=N\\Nc1cc(C)c2cc(C)ccc2n1)c1ccccn1", "TGI", 0.312),
    ("COC1CC2CCC(C)C(O)(O2)C(=O)C(=O)N2CCCCC2C(=O)OC(C(C)CC2CCC(O)C(OC)C2)CC(=O)C(C)C=C(C)C(O)C(OC)C(=O)C(C)CC(C)/C=C/C=C/C=C1C (stereo not given)", "TGI", 12.5),
]

Let me check: "CC(C)c1cc(CN(C)C)c(O)c(C(C)(C)C)c1" , system UACC-257 melanoma, measured TGI is 29.2

###

Items are presented alongside their recorded TGI.
Tested on: UACC-257 melanoma
test method notes: NCI tumour cell line growth inhibition, 48 h

Entry "Clc1cc(Cc2cc(Cl)c(Cl)c3c2OCOC3)c2c(c1Cl)COCO2" under UACC-257 melanoma had TGI of > 100 µM

// returns TGI for "N#CN=C(N)NC(=O)/C=C/C=C/c1ccc(Cl)cc1" with UACC-257 melanoma; value = > 100 µM

# lookup: "CSc1nc(Cl)c(Br)c(Sc2nc(N)nc3nc[nH]c23)n1" on UACC-257 melanoma, TGI = 30 µM

Response field TGI (UACC-257 melanoma) for item "COc1cc(C)c(/C=C/C(=O)N2C(=O)OC[C@@H]2c2ccccc2)c(C)c1" : > 100 µM

Query "COc1ccc(/C=C/C(=O)/C=C/c2ccc(OC)cc2)cc1" on UACC-257 melanoma; TGI returned: 41.3 µM

The reported TGI value, UACC-257 melanoma, for "COC(=O)c1sc2ncc3c(c2c1N)CCCCCC3" reads > 100 µM

For the compound "N=C(N)N1CCC(N2CCOCC2)CC1" , the measured TGI on UACC-257 melanoma was > 100 µM
